Entries annotated with measured IC50
Target: Prostaglandin G/H synthase 2 (Homo sapiens)
Sequence (P35354 whole entry): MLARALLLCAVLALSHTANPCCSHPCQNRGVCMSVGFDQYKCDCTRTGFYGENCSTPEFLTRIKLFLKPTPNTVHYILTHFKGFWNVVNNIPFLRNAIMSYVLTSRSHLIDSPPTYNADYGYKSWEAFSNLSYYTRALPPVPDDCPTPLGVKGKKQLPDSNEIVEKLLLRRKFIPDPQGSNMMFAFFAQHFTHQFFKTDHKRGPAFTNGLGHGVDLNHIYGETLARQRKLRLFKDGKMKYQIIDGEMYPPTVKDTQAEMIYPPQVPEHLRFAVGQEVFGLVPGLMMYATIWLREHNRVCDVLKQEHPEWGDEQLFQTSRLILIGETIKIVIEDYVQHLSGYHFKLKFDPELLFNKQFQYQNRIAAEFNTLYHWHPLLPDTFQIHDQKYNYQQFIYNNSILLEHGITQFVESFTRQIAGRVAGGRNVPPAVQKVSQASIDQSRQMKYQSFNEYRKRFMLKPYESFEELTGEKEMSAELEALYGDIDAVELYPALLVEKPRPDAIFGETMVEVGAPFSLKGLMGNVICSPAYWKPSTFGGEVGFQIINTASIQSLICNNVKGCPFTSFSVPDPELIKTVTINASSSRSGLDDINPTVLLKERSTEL
Reply with just the number (in µM).

Lab request: please report IC50 under test system Prostaglandin G/H synthase 2 (Homo sapiens) for CC(=O)OCO/N=[N+](\[O-])N1CCC[C@H]1COC(=O)C(C)c1ccc(CC(C)C)cc1 (stereo partly drawn)
6.4

Provide value of IC50 for this record tested with Prostaglandin G/H synthase 2 (Homo sapiens): COc1ccc2c(c1)c(CC(=O)OC[C@@H]1CCCN1/[N+]([O-])=N/OCOC(C)=O)c(C)n2C(=O)c1ccc(Cl)cc1
9.3

For the record CC(C)Cc1ccc(C(C)C(=O)OC(CO[N+](=O)[O-])CO[N+](=O)[O-])cc1 (stereo not drawn) , what value of IC50 is listed for Prostaglandin G/H synthase 2 (Homo sapiens)?
1.7
